biological target: T. gondii ME49Luc in IFN-y HeLa, luciferase, 72 h; experiment: T. gondii growth inhibition with IFN-gamma, dose response, cell-based, ME49Luc, HeLa, luciferase, 72 h (AID 1259418)
Results filed as inconclusive are left out. Active and inactive are the calls of the source.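 Rule for the calls: active = fitted half-maximal concentration of signal decrease at or below twice the sample's top tested concentration; inconclusive = flat curve between -70 and -30 percent, or poor fit; inactive = flat within 30 percent, signal rise, or potency above limit.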
Classes used: y = active, n = inactive

COMPOUND | CATEGORY
CN1c2ccc(-c3ccc(C#N)cc3)cc2[C@@H]2[C@@H](CCN2S(=O)(=O)c2ccc(F)cc2)[C@@H]1CO | y
Cc1ccc(-c2nc(CN3CCN(C(=O)NC4CCCC4)CC3)c(C)o2)cc1 | y
O=C(Cc1ccncc1)N1CCCCN2[C@H](CO)[C@@H](c3ccc(C#Cc4ccccc4F)cc3)[C@H]2C1 | y
CC(C)(O)CC(=O)NCCn1ccc2ncnc(Nc3ccc(Oc4cccc(C(F)(F)F)c4)c(Cl)c3)c21 | y
CCc1ccc(S(=O)(=O)Nc2ccc(-c3nc(-c4ccc(C)cc4C)co3)cc2)cc1 | y
Cc1ccccc1-c1nc(CN2CCN(C(=O)NCCc3ccccc3)CC2)c(C)o1 | y
COc1ccc(-c2nc(CN(c3cccc(OC)c3)S(=O)(=O)c3ccccc3)c(C)o2)cc1 | y
Cc1ccc(S(=O)(=O)N2CCC3(CC2)NCCN=C3NCc2ccccc2Cl)cc1C | y
COCC1(C(=O)N2CCc3c(nc(-c4ccccc4)[nH]c3=O)C2)CCC1 | y
CC(C)Cc1ccc(S(=O)(=O)N2CCC3(CC2)NCCN=C3NC2CCCC2)cc1 | y
COc1cccc(NC(=O)COc2nc(C)nc3ccccc23)c1 | y
O=C(Cc1ccncc1)N1CCCCN2[C@H](C1)[C@@H](c1ccc(C#Cc3ccccc3F)cc1)[C@@H]2CO | y
CN1C(=O)CCc2cc(NC(=O)C(F)(F)F)ccc21 | y
Cc1nc(CCNC(=O)C2CCN(S(=O)(=O)c3ccc(C(C)(C)C)cc3)CC2)cs1 | y
Cc1cccc(N2CCN(C(=O)CC3Nc4c5ccccc5nc(=S)n4C3=O)CC2)c1C (centres undefined) | y
O=C(CCC1N=C2c3ccccc3N=C(SCc3ccc(F)cc3)N2C1=O)NC1CCCCC1 (centres undefined) | y
Cc1ccc(CNC2=NCCNC23CCN(S(=O)(=O)c2ccc4c(c2)CCCC4)CC3)cc1 | y
COc1cc(OC)cc(C(=O)N2CCC3(CC2)Nc2cc(OC)ccc2-n2cccc23)c1 | y
COCC(=O)Nc1ccc(-c2nc(-c3cc(C)ccc3C)co2)cc1 | n
